Test system: trypsin
PROTOCOL SUMMARY: Proteinase inhibitory activity (trypsin/casein)
Type: biochemical
MEASUREMENT CONTEXT: 250 μg/ml, mean ± SD (n = 3)
Quick list: % Inhibition of proteinase activity per entry.

Known % Inhibition of proteinase activity results, listed for orientation:
COMPOUND	% Inhibition of proteinase activity
Cc1ccc2oc(=O)c3c(c2c1)OC(N=CN(C)C)=C(C#N)C3c1ccc([N+](=O)[O-])cc1 (racemic) [Compound 7a]	31.99 ± 2.45%
CC(=O)c1ccc(NS(=O)(=O)c2c(O)c3cc(C)ccc3oc2=O)cc1 [Compound 11f]	2.0 ± 1.4%
Cc1ccc2oc(=O)c(S(=O)(=O)Nc3ccc(S(=O)(=O)Nc4nccs4)cc3)c(O)c2c1 [Compound 10f]	43.88 ± 5.6%
Cc1ccc2oc(=O)c(S(=O)(=O)Nc3ccccc3)c(O)c2c1 [Compound 11b]	14.3 ± 2.21%
CC(=O)Oc1ccccc1C(=O)O [Aspirin, aspirin, reference compound]	45.83 ± 4.21%

Exam item: Look up and report measured % Inhibition of proteinase activity for this entry: O=c1oc2ccc(Cl)cc2c(O)c1S(=O)(=O)Nc1ccccc1 [Compound 11a]
Marked response: 44.7 ± 8.22%

Exam item: Look up and report measured % Inhibition of proteinase activity for this entry: Cc1ccc2oc(=O)c3c(c2c1)OC(N=CN(C)C)=C(C#N)C3c1ccco1 (racemic) [Compound 7b]
Marked response: 33.17 ± 2.79%

Exam item: Look up and report measured % Inhibition of proteinase activity for this entry: O=C(/C=C/c1ccc(Cl)cc1)c1ccc(NS(=O)(=O)c2c(O)c3cc(Cl)ccc3oc2=O)cc1 [Compound 12c]
Marked response: 17.6 ± 6.86%

* * *

OUTCOME MEASURE: melting point

Known melting point results, listed for orientation:
COMPOUND	VALUE
Cc1ccc2oc(=O)c3c(c2c1)OC(N=Cc1ccccc1)=C(C#N)C3c1ccc([N+](=O)[O-])cc1 (racemic)	208 to 209 °C
Cc1ccc2oc(=O)c(S(=O)(=O)Nc3ccc(S(=O)(=O)Nc4ncccn4)cc3)c(O)c2c1 [Compound 10d]	207 to 209 °C
Cc1ccc2oc(=O)c3c(c2c1)OC(N=CN(C)C)=C(C#N)C3c1ccc([N+](=O)[O-])cc1 (racemic)	279 to 281 °C
O=c1oc2ccc(Cl)cc2c(O)c1S(=O)(=O)Nc1ccc(S(=O)(=O)Nc2nccs2)cc1 [Compound 10e]	215 to 217 °C
O=c1oc2ccc(Cl)cc2c(O)c1S(=O)(=O)Nc1ccc(O)cc1 [Compound 11c]	250 to 251 °C

Exam item: Look up and report measured melting point for this entry: COc1ccc(/C=C/C(=O)c2ccc(NS(=O)(=O)c3c(O)c4cc(Cl)ccc4oc3=O)cc2)cc1 [Compound 12e]
Marked response: > 300 °C

Exam item: Look up and report measured melting point for this entry: Cc1ccc2oc(=O)c3c(c2c1)OC(N=CN(C)C)=C(C#N)C3c1ccco1 (racemic)
Marked response: 273 to 275 °C

Exam item: Look up and report measured melting point for this entry: Cc1ccc2oc(=O)c3c(c2c1)OC(N=Cc1ccccc1)=C(C#N)C3c1ccco1 (racemic)
Marked response: 250 to 252 °C

Exam item: Look up and report measured melting point for this entry: O=C(/C=C/c1ccc([N+](=O)[O-])cc1)c1ccc(NS(=O)(=O)c2c(O)c3cc(Cl)ccc3oc2=O)cc1 [Compound 12a]
Marked response: 205 to 207 °C

Exam item: Look up and report measured melting point for this entry: O=c1oc2ccc(Cl)cc2c(O)c1S(=O)(=O)Nc1ccccc1 [Compound 11a]
Marked response: 337 to 339 °C

Exam item: Look up and report measured melting point for this entry: Cc1ccc2oc(=O)c(S(=O)(=O)Nc3ccccc3)c(O)c2c1 [Compound 11b]
Marked response: 324 to 325 °C

Exam item: Look up and report measured melting point for this entry: Cc1ccc2oc(=O)c(S(=O)(=O)Nc3ccc(C(=O)/C=C/c4ccc(Cl)cc4)cc3)c(O)c2c1 [Compound 12d]
Marked response: 141 to 143 °C

Exam item: Look up and report measured melting point for this entry: Cc1ccc2oc(=O)c(S(=O)(=O)Nc3ccc(O)cc3)c(O)c2c1 [Compound 11d]
Marked response: 253 to 254 °C

Exam item: Look up and report measured melting point for this entry: NS(=O)(=O)c1ccc(NS(=O)(=O)c2c(O)c3cc(Cl)ccc3oc2=O)cc1 [Compound 10a]
Marked response: 245 to 247 °C

Exam item: Look up and report measured melting point for this entry: Cc1ccc2oc(=O)c3c(c2c1)OC(N=Cc1ccc(Cl)cc1Cl)=C(C#N)C3c1ccco1 (racemic)
Marked response: > 300 °C

Exam item: Look up and report measured melting point for this entry: Cc1ccc2oc(=O)c3c(c2c1)OC(N)=C(C#N)C3c1ccco1 (racemic)
Marked response: 251 to 253 °C
